Measured % Inhibition, listed per entry.
# assayed-system: T1, human KDR (human, UniProt P35968 20-1356)
# T1 construct: whole, on cells; also called VEGFR2; endogenously-expressed KDR in HUVEC cells
# T1 sequence (P35968 20-1356): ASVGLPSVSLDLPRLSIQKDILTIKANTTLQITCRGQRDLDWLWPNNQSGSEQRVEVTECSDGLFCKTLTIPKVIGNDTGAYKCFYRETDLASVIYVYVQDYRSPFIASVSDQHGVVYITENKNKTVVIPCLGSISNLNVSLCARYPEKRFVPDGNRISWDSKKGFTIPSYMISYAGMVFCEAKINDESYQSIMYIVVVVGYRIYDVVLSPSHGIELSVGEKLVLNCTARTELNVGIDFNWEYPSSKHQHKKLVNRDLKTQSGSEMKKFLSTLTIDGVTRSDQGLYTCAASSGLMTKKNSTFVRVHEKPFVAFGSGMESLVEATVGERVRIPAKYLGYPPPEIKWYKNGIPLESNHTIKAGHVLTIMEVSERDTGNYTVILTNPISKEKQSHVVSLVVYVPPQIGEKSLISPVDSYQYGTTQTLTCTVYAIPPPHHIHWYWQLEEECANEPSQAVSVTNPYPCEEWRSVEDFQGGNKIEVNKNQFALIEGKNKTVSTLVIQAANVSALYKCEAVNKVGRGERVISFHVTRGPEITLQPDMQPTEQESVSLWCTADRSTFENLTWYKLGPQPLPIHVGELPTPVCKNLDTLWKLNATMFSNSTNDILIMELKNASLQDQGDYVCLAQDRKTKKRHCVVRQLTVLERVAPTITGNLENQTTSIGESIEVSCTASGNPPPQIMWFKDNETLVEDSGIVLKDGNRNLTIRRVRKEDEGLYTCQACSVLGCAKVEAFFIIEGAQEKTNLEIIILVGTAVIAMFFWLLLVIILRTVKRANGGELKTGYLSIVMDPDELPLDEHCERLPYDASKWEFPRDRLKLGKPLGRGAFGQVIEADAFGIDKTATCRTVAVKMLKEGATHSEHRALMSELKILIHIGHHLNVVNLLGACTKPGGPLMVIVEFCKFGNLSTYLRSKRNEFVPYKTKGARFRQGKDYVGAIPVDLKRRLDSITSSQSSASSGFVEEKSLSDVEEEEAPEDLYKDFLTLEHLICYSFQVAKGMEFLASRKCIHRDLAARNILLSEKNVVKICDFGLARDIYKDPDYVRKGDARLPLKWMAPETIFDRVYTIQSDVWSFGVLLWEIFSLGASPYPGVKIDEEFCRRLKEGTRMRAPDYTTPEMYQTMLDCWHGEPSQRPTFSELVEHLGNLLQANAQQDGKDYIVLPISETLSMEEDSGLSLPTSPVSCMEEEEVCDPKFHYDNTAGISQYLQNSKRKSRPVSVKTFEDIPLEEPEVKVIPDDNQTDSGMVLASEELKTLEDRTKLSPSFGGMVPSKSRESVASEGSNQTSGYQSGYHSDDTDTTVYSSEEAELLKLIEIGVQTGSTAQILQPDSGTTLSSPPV
# measurement-protocol: FACS competition on 293T/human KDR transfectants; antibody 5 ug/mL first, then competitor VEGF165 50 ng/mL; inhibition of VEGF binding

[
  {
    "binder": "33C3 (antibody, V domains shown, Fully human monoclonal antibody from a XenoMouse hybridoma (IgG2 or IgG4 strain), purified) VH: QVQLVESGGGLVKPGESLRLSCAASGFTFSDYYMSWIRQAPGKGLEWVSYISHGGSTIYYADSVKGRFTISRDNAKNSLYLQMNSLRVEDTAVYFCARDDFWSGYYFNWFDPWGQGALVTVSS VL: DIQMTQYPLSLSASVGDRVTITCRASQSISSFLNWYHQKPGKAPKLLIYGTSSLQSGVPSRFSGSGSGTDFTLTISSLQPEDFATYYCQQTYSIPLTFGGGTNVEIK",
    "% Inhibition [%]": 2
  },
  {
    "binder": "22B8 (antibody, V domains shown, Fully human monoclonal antibody from a XenoMouse hybridoma (IgG2 or IgG4 strain), purified) VH: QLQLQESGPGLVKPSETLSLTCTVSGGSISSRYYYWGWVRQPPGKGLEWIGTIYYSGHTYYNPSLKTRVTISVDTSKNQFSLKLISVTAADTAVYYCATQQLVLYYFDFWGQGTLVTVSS VL: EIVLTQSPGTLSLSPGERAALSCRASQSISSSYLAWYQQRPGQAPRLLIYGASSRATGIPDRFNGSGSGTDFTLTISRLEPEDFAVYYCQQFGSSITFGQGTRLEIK",
    "% Inhibition [%]": 7
  },
  {
    "binder": "33B1 (antibody, V domains shown, Fully human monoclonal antibody from a XenoMouse hybridoma (IgG2 or IgG4 strain), purified) VH: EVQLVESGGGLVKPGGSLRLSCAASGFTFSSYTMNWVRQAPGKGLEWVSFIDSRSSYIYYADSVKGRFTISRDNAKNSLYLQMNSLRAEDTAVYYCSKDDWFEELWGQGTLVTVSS VL: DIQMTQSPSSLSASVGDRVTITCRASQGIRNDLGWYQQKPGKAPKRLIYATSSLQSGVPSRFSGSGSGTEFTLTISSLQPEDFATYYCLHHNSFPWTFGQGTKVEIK",
    "% Inhibition [%]": 40
  }
]

Sourced from patent US20100260765A1
